Target: HLA-B*08:01
Test: IEDB peptide-MHC binding, purified MHC/direct/fluorescence; filed as Kd, often an IC50 or EC50 that approximates it; bounds were set here for any values at or beyond the usual limits of such assays
Conditions: source organism: Salmonella enterica
EXPERIMENTAL_ENDPOINT: Kd

I'd like to know its Kd. The sequence in question is LLQGVPFHV
≥ 20 µM

###

Target: HLA-B*58:01
Assay: IEDB peptide-MHC binding, purified MHC/direct/fluorescence; filed as Kd, often an IC50 or EC50 that approximates it; bounds were set here for any values at or beyond the usual limits of such assays
Conditions: source organism: Mammarenavirus juninense
EXPERIMENTAL_ENDPOINT: pKd
# log scale: pKd equals minus log10 of the concentration in mol/L

Name the recorded pKd for RATQPAAEF .
7.89

###

Target: HLA-A*03:01
Experiment: IEDB peptide-MHC binding, purified MHC/direct/fluorescence; filed as Kd, often an IC50 or EC50 that approximates it; bounds were set here for any values at or beyond the usual limits of such assays
Conditions: source organism: Influenza A virus (A/SW/KS/13481-T/00(H1N2))
pKd: −log10 of the molar value.
EXPERIMENTAL_ENDPOINT: pKd

Field: pKd (HLA-A*03:01). Entry: HEKGINPNY
≤ 4.70

###

Kd listing for selected sequences.
Biological target: HLA-B*15:01
Assay: IEDB peptide-MHC binding, purified MHC/competitive/radioactivity; filed as Kd, often an IC50 or EC50 that approximates it; bounds were set here for any values at or beyond the usual limits of such assays
Settings: source organism: Vaccinia virus Copenhagen
Please state the figure in nM; there is no need to write the unit.

Worked set:
SLNTSTLGF	1.67
IISSSTLYF	1.06

--- query ---
Any idea what its Kd is? The sequence is RLYSIFLIF
3.35

###

Target: HLA-A*11:01
Test: IEDB peptide-MHC binding, purified MHC/competitive/radioactivity; filed as Kd, often an IC50 or EC50 that approximates it; bounds were set here for any values at or beyond the usual limits of such assays
Details: source organism: Triticum aestivum
EXPERIMENTAL_ENDPOINT: Kd (nM)
Report the figure in nM without appending any unit label.

Reported Kd for AIILHQQQK : what is it?
38.2

###

Target: HLA-A*01:01
Test: IEDB peptide-MHC binding, purified MHC/direct/fluorescence; filed as Kd, often an IC50 or EC50 that approximates it; bounds were set here for any values at or beyond the usual limits of such assays
Details: source organism: Influenza A virus (A/swine/Hong Kong/5190/99(H3N2))
pKd: −log10 of the molar value.
EXPERIMENTAL_ENDPOINT: pKd

Which measured pKd value corresponds to GYMFESKSM ?
≤ 4.70

###

Target: HLA-A*29:02
Assay: IEDB peptide-MHC binding, purified MHC/direct/fluorescence; filed as Kd, often an IC50 or EC50 that approximates it; bounds were set here for any values at or beyond the usual limits of such assays
Conditions: source organism: Limestone Canyon virus
pKd: −log10 of the molar value.
EXPERIMENTAL_ENDPOINT: pKd

pKd of KSAFYQSYL on HLA-A*29:02?
≤ 4.70

###

Biological target: HLA-A*26:01
Assay: IEDB peptide-MHC binding, purified MHC/direct/fluorescence; filed as Kd, often an IC50 or EC50 that approximates it; bounds were set here for any values at or beyond the usual limits of such assays
Conditions: source organism: Influenza A virus(A/swine/Henan/8/2004(H9N2))
pKd: −log10 of the molar value.
EXPERIMENTAL_ENDPOINT: pKd

May I ask what pKd has been recorded for KSCLPACVY ?
≤ 4.70

###

Target: HLA-A*33:01
Experiment: IEDB peptide-MHC binding, purified MHC/competitive/radioactivity; filed as Kd, often an IC50 or EC50 that approximates it; bounds were set here for any values at or beyond the usual limits of such assays
Details: source organism: Vaccinia virus WR
EXPERIMENTAL_ENDPOINT: pKd
Scale: pKd equals -log10([C]), with [C] in mol/L.

These recorded examples may help you get a feel for the data.
RMLFTSTNDK	4.82
NTYLFNILY	5.83
IIKLPTLFGR	7.76
TLSERISSK	5.00
SSYIDFENTK	6.41

// pKd lookup, key: ETIEILRNY
5.67

// pKd lookup, key: FIHMVRCCK
6.44

###

Target: HLA-A*69:01
Test: IEDB peptide-MHC binding, purified MHC/direct/fluorescence; filed as Kd, often an IC50 or EC50 that approximates it; bounds were set here for any values at or beyond the usual limits of such assays
Conditions: source organism: Brucella suis 1330
EXPERIMENTAL_ENDPOINT: Kd

Report Kd for DPPEPLVRI please.
≥ 20 µM

###

Molecular target: HLA-A*68:02
Assay: IEDB peptide-MHC binding, purified MHC/competitive/radioactivity; filed as Kd, often an IC50 or EC50 that approximates it; bounds were set here for any values at or beyond the usual limits of such assays
Conditions: source organism: Dengue virus 4 Dominica/814669/1981
EXPERIMENTAL_ENDPOINT: pKd
On this scale, pKd is minus log10 of a concentration expressed in M (mol/L).

Requested read-out pKd, target or system HLA-A*68:02, entry GVSWMIRILI
6.71

###

Target: HLA-B*15:01
Assay: IEDB peptide-MHC binding, purified MHC/direct/fluorescence; filed as Kd, often an IC50 or EC50 that approximates it; bounds were set here for any values at or beyond the usual limits of such assays
Settings: source organism: Influenza A virus (A/swine/Korea/S190/2004(H9N2))
EXPERIMENTAL_ENDPOINT: Kd

Can you look up the measured Kd of WIPKRNRSI for me?
≥ 20 µM

###

Target: HLA-B*45:06
Assay: IEDB peptide-MHC binding, purified MHC/competitive/fluorescence; filed as Kd, often an IC50 or EC50 that approximates it; bounds were set here for any values at or beyond the usual limits of such assays
Settings: source organism: Yellow fever virus 1899/81
pKd: −log10 of the molar value.
EXPERIMENTAL_ENDPOINT: pKd

Using the record for HEVNGTWMI , report its pKd.
≤ 5.30

###

Entries and their measured Kd follow.
Molecular target: HLA-A*03:01
Assay: IEDB peptide-MHC binding, purified MHC/competitive/radioactivity; filed as Kd, often an IC50 or EC50 that approximates it; bounds were set here for any values at or beyond the usual limits of such assays
Details: source organism: SARS coronavirus Tor2
Output spec: scalar in nM, unitless text.

# count of solved cases: 3
WLSYFVASFR	56.6
AQPCSDKAYK	319
TTIKPVSYK	2.04

Record VFLILCFTIK : what is its Kd with HLA-A*03:01?
168

Under HLA-A*03:01: Kd value of GFDAWFSQR ?
17800

// fetch HLA-A*03:01 Kd for QQQGQTVTKK
6440

Kindly state the measured Kd obtained for SLLRSTSQK with HLA-A*03:01.
2.56

Fill in the recorded Kd for this sequence, with HLA-A*03:01 as test system: ITAKETLYR
131

Test system HLA-A*03:01; read-out Kd; what value for VFAQVKQMYK ?
66.5

Record lookup: for HLA-A*03:01, what Kd belongs to SVLNDILSR ?
7790

Which Kd is reported with HLA-A*03:01 for this entry: CAAYYFMKFR ?
209

Provide the documented Kd with HLA-A*03:01 as the system for DLKWARFPK
5640

What is its Kd for HLA-A*03:01? Entry: ASAFFGMSR
3170

What value of Kd on HLA-A*03:01 does KSFNHVLKRK have?
1.01

Entry GVVFLHVTY , system HLA-A*03:01: what Kd was measured?
8170

Checklist item: Kd tested on HLA-A*03:01, entry VVENPTIQK , value?
328

Find Kd (HLA-A*03:01) for the entry LLNKEMYLK
10.7

###

Target: HLA-B*07:02
Assay: IEDB peptide-MHC binding, purified MHC/competitive/radioactivity; filed as Kd, often an IC50 or EC50 that approximates it; bounds were set here for any values at or beyond the usual limits of such assays
Settings: source organism: Mammarenavirus choriomeningitidis
EXPERIMENTAL_ENDPOINT: Kd

// returns reported Kd for input FATCGLFAL
8.62 µM

###

Target: HLA-A*26:01
Test: IEDB peptide-MHC binding, purified MHC/competitive/radioactivity; filed as Kd, often an IC50 or EC50 that approximates it; bounds were set here for any values at or beyond the usual limits of such assays
Details: source organism: Mammarenavirus choriomeningitidis
EXPERIMENTAL_ENDPOINT: pKd
When answering, recall that pKd equals minus log10 of the concentration in mol/L, and write that number alone.

Find the recorded pKd belonging to QLQSPGVADY and report it.
5.11
